target: F protein of RSV (Long strain) (RSV (Long strain), UniProt P12568 26-574); assay: cell-based or functional assay
Sequence (P12568 26-574): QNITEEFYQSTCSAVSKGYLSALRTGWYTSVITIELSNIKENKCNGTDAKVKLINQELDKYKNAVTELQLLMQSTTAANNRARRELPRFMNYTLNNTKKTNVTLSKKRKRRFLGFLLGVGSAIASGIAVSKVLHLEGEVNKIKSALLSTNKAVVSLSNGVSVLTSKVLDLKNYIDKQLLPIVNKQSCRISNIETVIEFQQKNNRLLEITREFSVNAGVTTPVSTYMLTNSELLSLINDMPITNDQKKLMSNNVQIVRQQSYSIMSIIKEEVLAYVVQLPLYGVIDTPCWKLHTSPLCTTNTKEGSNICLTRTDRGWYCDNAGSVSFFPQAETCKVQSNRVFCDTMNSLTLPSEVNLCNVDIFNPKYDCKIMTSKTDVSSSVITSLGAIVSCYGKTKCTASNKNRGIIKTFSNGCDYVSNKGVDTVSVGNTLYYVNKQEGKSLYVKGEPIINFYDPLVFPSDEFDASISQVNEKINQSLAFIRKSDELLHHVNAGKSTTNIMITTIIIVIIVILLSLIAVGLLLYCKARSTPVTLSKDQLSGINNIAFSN
Short version: Mean IC50 (Control) at least 0.04 µg/mL is class 1, less is class 0.

Could you verify whether the entry A13c4 IgG (antibody, V domains shown) VH: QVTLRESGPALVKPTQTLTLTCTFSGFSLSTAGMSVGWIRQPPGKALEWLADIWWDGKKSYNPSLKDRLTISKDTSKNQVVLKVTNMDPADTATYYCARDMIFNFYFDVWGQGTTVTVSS VL: DIQMTQSPSTLSASVGDRVTITCSLSSRVGYMHWYQQKPGKAPKLLIYDTMYQSSGVPSRFSGSGSGTEFTLTISSLQPDDFATYYCFQGSGYPFTFGGGTKVEIKR shows Mean IC50 (Control) of no less than 0.04 µg/mL? class 0

Could you verify whether the entry P11d4 IgG (antibody, V domains shown) VH: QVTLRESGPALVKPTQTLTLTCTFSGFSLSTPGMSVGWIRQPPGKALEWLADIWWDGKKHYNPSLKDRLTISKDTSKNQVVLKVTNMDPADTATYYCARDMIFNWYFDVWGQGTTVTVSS VL: DIQMTQSPSTLSASVGDRVTITCSPSSRVGYMHWYQQKPGKAPKLLIYDTMRLASGVPSRFSGSGSGTEFTLTISSLQPDDFATYYCFQGSGYPFTFGGGTKVEIKR shows Mean IC50 (Control) of no less than 0.04 µg/mL? class 0

Could you verify whether the entry A13a11 Fab (Fab, V domains shown) VH: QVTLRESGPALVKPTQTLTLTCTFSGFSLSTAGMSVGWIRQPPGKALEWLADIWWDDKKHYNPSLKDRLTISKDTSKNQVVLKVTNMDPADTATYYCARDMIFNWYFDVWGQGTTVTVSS VL: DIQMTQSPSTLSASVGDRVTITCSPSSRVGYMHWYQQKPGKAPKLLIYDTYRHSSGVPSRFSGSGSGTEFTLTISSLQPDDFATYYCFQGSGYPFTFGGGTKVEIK shows Mean IC50 (Control) of no less than 0.04 µg/mL? class 1

Could you verify whether the entry A1e9 Fab (Fab, V domains shown, also called Ale9) VH: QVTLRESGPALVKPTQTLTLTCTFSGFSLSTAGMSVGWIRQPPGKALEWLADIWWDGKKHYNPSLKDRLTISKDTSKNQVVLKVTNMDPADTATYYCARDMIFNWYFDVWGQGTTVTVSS VL: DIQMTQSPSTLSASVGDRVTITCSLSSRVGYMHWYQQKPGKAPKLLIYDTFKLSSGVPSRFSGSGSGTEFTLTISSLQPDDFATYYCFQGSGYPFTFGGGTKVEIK shows Mean IC50 (Control) of no less than 0.04 µg/mL? class 1

Could you verify whether the entry P11d4 Fab (Fab, V domains shown) VH: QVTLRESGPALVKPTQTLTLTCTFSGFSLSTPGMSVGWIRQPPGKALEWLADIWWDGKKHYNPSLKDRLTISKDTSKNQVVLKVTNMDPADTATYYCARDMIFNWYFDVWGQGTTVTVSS VL: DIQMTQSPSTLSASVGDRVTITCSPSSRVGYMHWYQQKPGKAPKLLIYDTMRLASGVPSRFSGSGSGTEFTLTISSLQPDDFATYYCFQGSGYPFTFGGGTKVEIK shows Mean IC50 (Control) of no less than 0.04 µg/mL? class 1

Could you verify whether the entry P12f2 Fab (Fab, V domains shown) VH: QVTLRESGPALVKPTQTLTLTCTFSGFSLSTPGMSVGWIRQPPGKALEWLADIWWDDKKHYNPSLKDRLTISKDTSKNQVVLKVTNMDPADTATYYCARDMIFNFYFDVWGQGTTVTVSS VL: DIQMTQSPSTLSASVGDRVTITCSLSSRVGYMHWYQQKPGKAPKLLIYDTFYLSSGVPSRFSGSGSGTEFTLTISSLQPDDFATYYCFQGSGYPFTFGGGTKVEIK shows Mean IC50 (Control) of no less than 0.04 µg/mL? class 0

Could you verify whether the entry A12a6 IgG (antibody, V domains shown) VH: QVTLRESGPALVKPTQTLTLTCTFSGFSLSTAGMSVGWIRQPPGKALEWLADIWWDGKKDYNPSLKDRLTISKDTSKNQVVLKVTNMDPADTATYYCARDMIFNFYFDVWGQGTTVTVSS VL: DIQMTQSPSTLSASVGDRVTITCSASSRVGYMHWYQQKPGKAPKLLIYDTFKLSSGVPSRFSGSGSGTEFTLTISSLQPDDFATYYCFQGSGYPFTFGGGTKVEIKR shows Mean IC50 (Control) of no less than 0.04 µg/mL? class 0
